# Tested on: PIP5K2C;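 also: KINOMEscan scanMAX binding as percent activity remaining versus control; lower means stronger binding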
# Construct: gene PIP4K2C
# condition parameters: Compound Concentration (nM):1000
Binary call on Percent Control: Fulfilled from 70% upward, Not fulfilled beneath that.

As a guide, the following entries are already answered.
molecule | class assignment
COc1cc(N2CCN(C(C)C)CC2)ccc1Nc1nc(Nc2ccc(F)cc2C(=O)NC[C@@H](O)CO)c2cc[nH]c2n1 [GSK1392956A] | Fulfilled
CN1CCN(C(=O)c2ccc(NC(=O)Nc3ccc(N(C)c4ccnc(Nc5ccc(CS(C)(=O)=O)cc5)n4)cc3)cc2)CC1.Cl [GW830263A] | Not fulfilled
COc1cc2ncnc(Nc3ccc4c(cnn4Cc4ccccc4)c3)c2cc1OC.Cl [GW282449A] | Fulfilled
COc1ccc2c(-c3ccnc(Nc4cccc(OC(F)(F)F)c4)n3)cnn2n1 [GW810372X] | Not fulfilled
Cl.O=S1CCN(Cc2ccc(-c3ccc4ncnc(Nc5ccc(OCc6ccccc6)c(F)c5)c4c3)o2)CC1 [GW576924A] | Not fulfilled

stdin: Determine whether this molecule has Percent Control no lower than 70%: COc1cc(C=NNc2ncnc3c2cnn3-c2ccccc2)ccc1O [GW513184X]
stdout: Not fulfilled

stdin: Determine whether this molecule has Percent Control no lower than 70%: NS(=O)(=O)c1ccc(Nc2ncc(-c3ccccc3)o2)cc1 [GW572399X]
stdout: Not fulfilled

stdin: Determine whether this molecule has Percent Control no lower than 70%: COc1ccc2cc(-c3c(-c4ccncc4)nc(-c4ccc(S(C)(=O)=O)cc4C)n3C)ccc2c1
stdout: Fulfilled

Origin of values: paper PMC7826789
